- EXPERIMENTAL_SYSTEM: Protein polybromo-1 (Homo sapiens, UniProt Q86U86)
- Sequence (Q86U86 whole entry): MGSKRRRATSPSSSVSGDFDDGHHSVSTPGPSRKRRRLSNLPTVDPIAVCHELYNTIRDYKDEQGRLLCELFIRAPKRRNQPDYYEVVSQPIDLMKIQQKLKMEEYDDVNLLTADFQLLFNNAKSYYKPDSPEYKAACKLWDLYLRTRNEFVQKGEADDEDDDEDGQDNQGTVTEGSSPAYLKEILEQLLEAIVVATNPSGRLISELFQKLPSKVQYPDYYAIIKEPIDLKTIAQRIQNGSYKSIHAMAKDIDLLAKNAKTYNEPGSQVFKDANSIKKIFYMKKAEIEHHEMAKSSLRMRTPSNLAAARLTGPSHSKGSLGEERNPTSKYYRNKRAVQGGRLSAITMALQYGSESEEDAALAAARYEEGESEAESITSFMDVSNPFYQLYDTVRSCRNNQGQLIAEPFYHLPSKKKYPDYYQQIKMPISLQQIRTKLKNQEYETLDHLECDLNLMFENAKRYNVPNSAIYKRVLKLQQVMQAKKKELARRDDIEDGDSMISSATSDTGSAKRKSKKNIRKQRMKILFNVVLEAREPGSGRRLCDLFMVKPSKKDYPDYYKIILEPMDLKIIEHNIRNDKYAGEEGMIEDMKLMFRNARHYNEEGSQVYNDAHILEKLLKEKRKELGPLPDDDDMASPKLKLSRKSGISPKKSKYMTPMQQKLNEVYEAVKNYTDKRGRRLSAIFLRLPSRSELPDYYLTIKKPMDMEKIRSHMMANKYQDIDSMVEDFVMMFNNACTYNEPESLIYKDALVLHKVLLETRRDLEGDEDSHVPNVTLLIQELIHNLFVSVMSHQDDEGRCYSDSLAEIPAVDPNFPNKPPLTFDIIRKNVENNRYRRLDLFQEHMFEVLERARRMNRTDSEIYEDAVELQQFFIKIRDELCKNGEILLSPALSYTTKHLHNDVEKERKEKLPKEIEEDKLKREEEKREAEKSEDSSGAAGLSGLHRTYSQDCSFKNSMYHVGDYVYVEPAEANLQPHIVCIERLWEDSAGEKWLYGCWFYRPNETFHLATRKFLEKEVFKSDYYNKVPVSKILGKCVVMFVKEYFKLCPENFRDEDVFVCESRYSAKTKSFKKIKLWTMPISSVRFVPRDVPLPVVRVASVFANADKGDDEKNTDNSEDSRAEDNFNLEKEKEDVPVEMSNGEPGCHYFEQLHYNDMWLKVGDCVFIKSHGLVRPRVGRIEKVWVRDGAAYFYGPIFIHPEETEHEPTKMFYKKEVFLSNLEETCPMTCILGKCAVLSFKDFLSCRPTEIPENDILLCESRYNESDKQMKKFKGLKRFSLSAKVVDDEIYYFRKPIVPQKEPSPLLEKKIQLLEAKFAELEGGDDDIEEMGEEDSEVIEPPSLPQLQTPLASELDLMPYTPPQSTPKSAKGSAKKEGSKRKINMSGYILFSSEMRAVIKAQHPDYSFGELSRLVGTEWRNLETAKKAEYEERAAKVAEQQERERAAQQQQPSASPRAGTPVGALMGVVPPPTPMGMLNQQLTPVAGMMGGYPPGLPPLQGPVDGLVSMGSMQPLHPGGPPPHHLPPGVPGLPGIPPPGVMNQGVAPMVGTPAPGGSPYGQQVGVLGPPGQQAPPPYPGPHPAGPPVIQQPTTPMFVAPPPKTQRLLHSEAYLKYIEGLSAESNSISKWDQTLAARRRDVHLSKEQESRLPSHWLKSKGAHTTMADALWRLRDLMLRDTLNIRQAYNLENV
- PARTICULARS: dose 100.0 µM
Rule: measured ΔTm below 5 °C gets satisfied; anything equal to or greater than 5 °C gets not satisfied.

Worked cases, answers included:
INSERT INTO measurements (molecule, experimental_system, classification) VALUES
  ('Cc1cc(C)cc(C2NC(=O)c3c(Cl)cccc3N2)c1 (centres undefined)', 'Protein polybromo-1 (Homo sapiens, UniProt Q86U86)', 'satisfied'),
  ('CCC(/C=C1\CCn2c1nc(=O)c1c(Cl)cccc12)CC', 'Protein polybromo-1 (Homo sapiens, UniProt Q86U86)', 'not satisfied'),
  ('CCC(/C=C1\CCn2c1nc(=O)c1ccccc12)CC', 'Protein polybromo-1 (Homo sapiens, UniProt Q86U86)', 'satisfied'),
  ('COc1cccc2c1C(=O)NC(c1ccccc1C)N2 (centres undefined)', 'Protein polybromo-1 (Homo sapiens, UniProt Q86U86)', 'satisfied'),
  ('Cc1cccc(C2NC(=O)c3c(Br)cccc3N2)c1 (centres undefined)', 'Protein polybromo-1 (Homo sapiens, UniProt Q86U86)', 'not satisfied');

Strictly below 5 °C in ΔTm? O=C1NC(c2c(F)cccc2Cl)Nc2ccccc21 (centres undefined)
satisfied

Problem: For the molecule Cc1cccc(C2NC(=O)c3c(Cl)cccc3N2)c1 (centres undefined) , is ΔTm under 5 °C?
not satisfied

Please check: ΔTm for O=C1NC(c2c(F)cccc2Cl)Nc2cccc(Cl)c21 (centres undefined) , strictly under 5 °C or not?
satisfied

Does the reported ΔTm of Cc1ccccc1C1NC(=O)c2c(Cl)cccc2N1 (centres undefined) stay below 5 °C?
not satisfied

----------
- EXPERIMENTAL_SYSTEM: Protein polybromo-1 (Homo sapiens)
- ASSAY_DETAILS: Binding affinity to 15N-labeled recombinant human PBRM1 BD2 transfected in Escherichia coli BL21 (DE3) assessed as […] chemical shift perturbation by measuring dissociation constant by NMR titration analysis
pKd: −log10 of the molar value.
Field: pKd. Provide a value for each of the compounds that follow.

INSERT INTO results (smiles_string, measured_property, reported_result) VALUES
  ('NC(=S)c1ccc(F)cc1', 'pKd', '< 2.70'),
  ('COc1cccc(OCC(F)(F)F)c1C#N', 'pKd', '< 2.70');

pKd for `N#Cc1ncccc1N1CCCCC1` ?
< 2.70

----------
Protein polybromo-1 (Homo sapiens) data, read-out IC50

INSERT INTO results (molecule, measured_property, reported_result) VALUES
  ('O=C(O)c1ccc(Cl)c2c(=O)c3ccccc3[nH]c12', 'IC50', '> 250 µM');

Turning now to a further record.
Query (molecule): COc1cccc2c1C(=O)NC(c1ccccc1C)N2 (configuration not stated) ; field requested: IC50
> 70 µM

Origin of measurements: ChEMBL document CHEMBL5108070
